test system: 4'-phosphopantetheinyl transferase ffp (Bacillus subtilis)
measurement description: qHTS Assay for Inhibitors of Bacillus subtilis Sfp phosphopantetheinyl transferase (PPTase);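 also: the enzyme is Sfp with the accession as filed and its product quenches rhodamine fluorescence; 0% = enzyme reaction without inhibitor and -100% = no enzyme wells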
experimental conditions: Biochemical Sfp PPTase activity
In all, about 310,000 compounds went through this assay and about 11,000 (3.5%) were called active. Not shown: some 4% with an inconclusive outcome. What follows is part of a selection rich in actives, with near analogues and random picks from the rest.
Hi there, I'd appreciate the recorded largest response in the series, negative = inhibition for every entry that follows.
Answers are plain numbers, in %.

compound: CC1CCCC(C)N1C(=O)CSc1nnnn1C1CCCC1 (centres undefined)
test system: 4'-phosphopantetheinyl transferase ffp (Bacillus subtilis)
endpoint unit: %
quantitative readout: 18.7
--
compound: CCOC(=O)c1c(S(=O)(=O)Nc2cccc(Cl)c2)c(C)n(C)c1C
test system: 4'-phosphopantetheinyl transferase ffp (Bacillus subtilis)
endpoint unit: %
quantitative readout: 17.3
--
compound: CC(C)c1cc(C(=O)N/N=C/C(Br)=C/c2ccccc2)n[nH]1
test system: 4'-phosphopantetheinyl transferase ffp (Bacillus subtilis)
endpoint unit: %
quantitative readout: 3.6
--
compound: COc1c(O)c2c(=O)cc(OC)c3c4c(OC)cc(=O)c5c(O)c(OC)c6c(c(c1C[C@@](C)(O)[C@H]6C(C)=O)c23)c54
test system: 4'-phosphopantetheinyl transferase ffp (Bacillus subtilis)
endpoint unit: %
quantitative readout: -14.1

Would you be so kind as to report largest response in the series, negative = inhibition for each listed record?
1. S=c1[nH]nc(-c2cccnc2)n1/N=C/C(Cl)=C\c1ccccc1
2. Cc1ccc(OCC(=O)Nc2ccc(N3CCN(C(=O)c4ccco4)CC3)cc2)c(C)c1
3. CN(C)C(=O)c1ccc(NC(=O)c2ccccc2-c2ccccc2)cc1
4. O=C(COC(=O)c1cccs1)NCc1cccs1
5. NC(=O)CSc1nnc(NC(=O)c2ccc(Br)o2)s1

(A)
1. -12.9
2. -9.57
3. -2.24
4. 10.5
5. 4.59

Would you be so kind as to report largest response in the series, negative = inhibition for each listed record?
1. CC(=O)Nc1ccc(S(=O)(=O)NC2Cc3ccccc3C2)cc1
2. Cn1c(CNc2nc(-c3ccccc3)cs2)nnc1SCC(=O)c1ccccc1
3. Cc1ccccc1NC(=O)Cn1cc(C(=O)C2CC2)c2ccccc21
4. CCOC(=O)CSc1nccc(N(C)C)c1C#N
5. Cc1cccc(NC(=O)NC(=S)NC(=O)c2ccccc2)c1
6. O=C(CN1CCCC1)Nc1sc2c(c1C(=O)Nc1ccccc1)CCCC2

(A)
10.7
3.73
16.6
-4.04
18.4
-1.37

Would you be so kind as to report largest response in the series, negative = inhibition for each listed record?
1. C=C1C(=O)C23C(O)C1CCC2[C@]12COC3(O)C(O)C1C(C)(C)CC[C@H]2O (some centres undefined)
2. CC(O)COc1ccccc1 (centres undefined)

(A)
[-81.1, 12.6]

Would you be so kind as to report largest response in the series, negative = inhibition for each listed record?
1. O=C(CSc1ncn[nH]1)Nc1ccnc2ccccc12
2. S=c1[nH]nc(-c2ccco2)n1/N=C/c1ccccc1
3. CCCCC[C@H]1CN(C2CCCCC2)C(=O)[C@@H]1CC(=O)NCc1ccc(OC)cc1
4. Cc1ccnc(N2CCCC(C(=O)NC3CC3)C2)n1 (centres undefined)
5. Cc1ccc(NC(=O)c2csc3c2CCCC3)cc1
6. O=C(CSc1ncn[nH]1)Nc1nsc(-c2ccccc2)n1
7. C=CCn1c(=S)[nH]c2nc3c(cc2c1=O)COC(C)(C)C3

(A)
1: 12.4; 2: -17.1; 3: -4.46; 4: 12.1; 5: -32.4; 6: 9.26; 7: -7.89
